Hey, just so you know, these numbers are from paper PMC9266750.

# Subject of test: Catalase from human erythrocytes (EC 1.11.1.6, CAT) (Homo sapiens, UniProt P04040)
# Construct: Catalase from human erythrocytes (EC 1.11.1.6, CAT); purchased Sigma–Aldrich (Poznań, Poland); host or cells: human erythrocytes (natural source)
# Procedure details: Catalase (CAT) inhibition kinetics by capillary electrophoresis (hydrogen peroxide/guaiacol/tetraguaiacol)
# Type: biochemical
# Run conditions: inhibitor 20.00 mM, hydrogen peroxide 10 mM, 20.00 mM GCOL; without inhibitors 0.00 mM
Could you please report measured tetraguaiacol (TGCOL) concentration in the presence of inhibitor for the items listed next?
State just the number; it will be interpreted in mM.

Provide value of tetraguaiacol (TGCOL) concentration in the presence of inhibitor for this record tested with Catalase from human erythrocytes (EC 1.11.1.6, CAT) (Homo sapiens, UniProt P04040): CN(C)CC(O)CN1C(=O)C2C(C1=O)C1(C)C(=O)C2(C)C(c2ccccc2)=C1c1ccccc1 (stereo not shown)
4.39

Provide the documented tetraguaiacol (TGCOL) concentration in the presence of inhibitor with Catalase from human erythrocytes (EC 1.11.1.6, CAT) (Homo sapiens, UniProt P04040) as the system for CCC12C(=O)C(CC)(C(c3ccccc3)=C1c1ccccc1)C1C(=O)N(CC(O)CN(C)C)C(=O)C12 (stereo not shown)
2.44

Please provide the recorded tetraguaiacol (TGCOL) concentration in the presence of inhibitor for CCC12C(=O)C(CC)(C(c3ccccc3)=C1c1ccccc1)C1C(=O)N(CC(O)CNC(C)C)C(=O)C12 (stereo not shown) , tested on Catalase from human erythrocytes (EC 1.11.1.6, CAT) (Homo sapiens, UniProt P04040).
5.86

I'm curious: which tetraguaiacol (TGCOL) concentration in the presence of inhibitor was measured for CC(C)NCC(O)CN1C(=O)C2C(C1=O)C1(C)C(=O)C2(C)C(c2ccccc2)=C1c1ccccc1 (stereo not shown) tested on Catalase from human erythrocytes (EC 1.11.1.6, CAT) (Homo sapiens, UniProt P04040)?
8.29

---

# Subject of test: Catalase from human erythrocytes (EC 1.11.1.6, CAT) (Homo sapiens, UniProt P04040)
# Construct: Catalase from human erythrocytes (EC 1.11.1.6, CAT); purchased Sigma–Aldrich (Poznań, Poland); host or cells: human erythrocytes (natural source)
# Sequence (P04040 2-527 limits assumed): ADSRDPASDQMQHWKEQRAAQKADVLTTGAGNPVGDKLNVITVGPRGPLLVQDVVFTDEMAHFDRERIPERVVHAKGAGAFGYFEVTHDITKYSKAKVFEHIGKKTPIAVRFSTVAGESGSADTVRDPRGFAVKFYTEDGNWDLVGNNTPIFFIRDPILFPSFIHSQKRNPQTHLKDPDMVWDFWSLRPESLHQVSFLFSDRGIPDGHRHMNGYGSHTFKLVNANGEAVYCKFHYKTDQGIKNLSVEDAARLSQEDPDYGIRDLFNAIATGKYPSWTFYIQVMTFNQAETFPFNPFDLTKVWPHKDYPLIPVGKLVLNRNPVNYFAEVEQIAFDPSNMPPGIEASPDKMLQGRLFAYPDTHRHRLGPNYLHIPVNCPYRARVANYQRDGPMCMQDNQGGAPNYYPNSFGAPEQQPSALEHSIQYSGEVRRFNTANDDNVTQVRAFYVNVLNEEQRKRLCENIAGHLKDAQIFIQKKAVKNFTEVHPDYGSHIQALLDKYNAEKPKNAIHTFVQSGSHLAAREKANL
# Procedure details: Catalase (CAT) inhibition kinetics by capillary electrophoresis (hydrogen peroxide/guaiacol/tetraguaiacol)
# Type: biochemical
# Run conditions: inhibitor 20.00 mM, hydrogen peroxide 10 mM, 20.00 mM GCOL; without inhibitors 20.00 mM
Quantity measured: guaiacol (GCOL) concentration in the presence of inhibitor (mM)
Hi! Could you send only the number? It should be in mM, unit omitted.

Endpoint output: guaiacol (GCOL) concentration in the presence of inhibitor of CC(C)NCC(O)CN1C(=O)C2C(C1=O)C1(C)C(=O)C2(C)C(c2ccccc2)=C1c1ccccc1 (stereo not shown) . Value?
11.71

// query guaiacol (GCOL) concentration in the presence of inhibitor value for entry CN(C)CC(O)CN1C(=O)C2C(C1=O)C1(C)C(=O)C2(C)C(c2ccccc2)=C1c1ccccc1 (stereo not shown)
15.61

Would you kindly share the measured guaiacol (GCOL) concentration in the presence of inhibitor for CCC12C(=O)C(CC)(C(c3ccccc3)=C1c1ccccc1)C1C(=O)N(CC(O)CNC(C)C)C(=O)C12 (stereo not shown) ?
14.14

Endpoint output: guaiacol (GCOL) concentration in the presence of inhibitor of CCC12C(=O)C(CC)(C(c3ccccc3)=C1c1ccccc1)C1C(=O)N(CC(O)CN(C)C)C(=O)C12 (stereo not shown) . Value?
17.56

---

Answer each item with its documented IC50.
# Subject of test: Catalase from human erythrocytes (EC 1.11.1.6, CAT) (Homo sapiens, UniProt P04040)
# Sequence (P04040 2-527 limits assumed): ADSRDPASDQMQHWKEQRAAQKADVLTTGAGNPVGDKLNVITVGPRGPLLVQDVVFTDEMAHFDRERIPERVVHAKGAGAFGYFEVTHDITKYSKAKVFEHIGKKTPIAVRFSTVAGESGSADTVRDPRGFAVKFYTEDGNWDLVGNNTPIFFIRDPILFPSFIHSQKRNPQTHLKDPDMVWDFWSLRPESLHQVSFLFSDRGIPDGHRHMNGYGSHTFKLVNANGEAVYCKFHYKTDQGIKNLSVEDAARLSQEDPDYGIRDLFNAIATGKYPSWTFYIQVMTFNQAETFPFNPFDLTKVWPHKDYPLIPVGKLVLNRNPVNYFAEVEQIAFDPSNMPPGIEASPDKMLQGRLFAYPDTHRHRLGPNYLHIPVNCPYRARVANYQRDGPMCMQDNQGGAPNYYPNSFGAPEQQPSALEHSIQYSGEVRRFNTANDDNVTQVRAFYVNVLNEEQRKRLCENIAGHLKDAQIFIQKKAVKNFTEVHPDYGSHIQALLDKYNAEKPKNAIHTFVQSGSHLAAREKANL

Which IC50 is listed for CC(C)NCC(O)CN1C(=O)C2C(C1=O)C1(C)C(=O)C2(C)C(c2ccccc2)=C1c1ccccc1 (stereo not shown) ?
10.3 mM

For the compound shown here, CN(C)CC(O)CN1C(=O)C2C(C1=O)C1(C)C(=O)C2(C)C(c2ccccc2)=C1c1ccccc1 (stereo not shown) , give the reported IC50.
12.2 mM

Request the reported IC50 associated with CCC12C(=O)C(CC)(C(c3ccccc3)=C1c1ccccc1)C1C(=O)N(CC(O)CNC(C)C)C(=O)C12 (stereo not shown)
11.4 mM

Find the recorded IC50 belonging to CCC12C(=O)C(CC)(C(c3ccccc3)=C1c1ccccc1)C1C(=O)N(CC(O)CN(C)C)C(=O)C12 (stereo not shown) and report it.
12.8 mM

---

Provide the reported Vmax of each item.
# Subject of test: Catalase from human erythrocytes (EC 1.11.1.6, CAT) (Homo sapiens, UniProt P04040)
# Construct: Catalase from human erythrocytes (EC 1.11.1.6, CAT); purchased Sigma–Aldrich (Poznań, Poland); host or cells: human erythrocytes (natural source)
# Sequence (P04040 2-527 limits assumed): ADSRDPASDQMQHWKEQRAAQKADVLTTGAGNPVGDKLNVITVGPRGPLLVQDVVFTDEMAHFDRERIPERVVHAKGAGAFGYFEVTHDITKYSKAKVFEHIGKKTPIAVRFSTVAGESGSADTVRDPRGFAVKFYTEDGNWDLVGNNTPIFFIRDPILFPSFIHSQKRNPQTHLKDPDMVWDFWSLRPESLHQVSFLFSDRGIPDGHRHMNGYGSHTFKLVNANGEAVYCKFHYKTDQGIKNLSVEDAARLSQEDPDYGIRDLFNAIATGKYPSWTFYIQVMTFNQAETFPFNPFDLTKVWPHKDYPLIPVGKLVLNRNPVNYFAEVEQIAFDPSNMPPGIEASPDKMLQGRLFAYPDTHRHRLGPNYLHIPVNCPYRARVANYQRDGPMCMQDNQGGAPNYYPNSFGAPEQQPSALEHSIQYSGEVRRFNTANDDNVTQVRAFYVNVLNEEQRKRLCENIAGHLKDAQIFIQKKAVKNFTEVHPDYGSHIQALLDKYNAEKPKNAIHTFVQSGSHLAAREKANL
# Procedure details: Catalase (CAT) inhibition kinetics by capillary electrophoresis (hydrogen peroxide/guaiacol/tetraguaiacol)
# Assay type: biochemical
# Run conditions: inhibitor 15.00 mM
A number alone suffices; assume mM/min.

Request body: readout Vmax, system Catalase from human erythrocytes (EC 1.11.1.6, CAT) (Homo sapiens, UniProt P04040), query CCC12C(=O)C(CC)(C(c3ccccc3)=C1c1ccccc1)C1C(=O)N(CC(O)CN(C)C)C(=O)C12 (stereo not shown) . Return the value.
1.25

Observed Vmax on Catalase from human erythrocytes (EC 1.11.1.6, CAT) (Homo sapiens, UniProt P04040) for CC(C)NCC(O)CN1C(=O)C2C(C1=O)C1(C)C(=O)C2(C)C(c2ccccc2)=C1c1ccccc1 (stereo not shown) , please.
1.24

// lookup Vmax | system=Catalase from human erythrocytes (EC 1.11.1.6, CAT) (Homo sapiens, UniProt P04040) | key= CCC12C(=O)C(CC)(C(c3ccccc3)=C1c1ccccc1)C1C(=O)N(CC(O)CNC(C)C)C(=O)C12 (stereo not shown)
1.24

Param readout = Vmax; param system = Catalase from human erythrocytes (EC 1.11.1.6, CAT) (Homo sapiens, UniProt P04040); param query = CN(C)CC(O)CN1C(=O)C2C(C1=O)C1(C)C(=O)C2(C)C(c2ccccc2)=C1c1ccccc1 (stereo not shown) ; response: value
1.23
